test: protein stability index of a GFP-peptide fusion (yeast GPS) (PSI 1-4); higher = more stable; sorted into four equal gates, so the index is relative within each strain; details: ubr1∆
Please map values of protein stability index to classes as shown: lower bin: < 2; middle bin: ≥ 2 and < 3; upper bin: ≥ 3

In: Determine which band this sequence sits in: DLSLIVKARHGGCDYIF [CYT1]
Out: middle bin

In: Which category does the recorded protein stability index put LRKLKKMNNKPERFMVF [RPC53] in?
Out: upper bin

In: Hi there! Could you help me figure out the category for GLLDLERVIVVTGFAEV [FAS2] please?
Out: middle bin

In: Note: place this sequence into its band. Item: KKQNLSSHQRVFKLSTN [SWP82]
Out: middle bin

In: Form field 'band' for AIPNGIHLQRFDEGTTL [RPO21]
Out: middle bin

In: Band for the recorded protein stability index of EVLNRVASRHPSESEHP [YDL116W/NUP84] ?
Out: upper bin

In: For PYCPIASITGTGSNDRC [YMR129W/POM152] , which protein stability index bin applies?
Out: lower bin

In: Just checking, what class would you give VPPIASPQQFLRAHTDD [PRE2] here?
Out: middle bin

In: Each sequence maps to one class by protein stability index. Which class for GLWGFSTATRNVTMIDD [COR1] ?
Out: middle bin

In: Quick check: band for FATNEERQMNFLTNELI [SWI3]
Out: middle bin

In: Classify this sequence: KKLSKKYNAFIASEVLI [RPL1A]
Out: lower bin

Values compiled from the supplement of paper PMC9732359.
